What MBC99.5 was measured for each of the following?
system: Pseudomonas aeruginosa; assay: Bactericidal activity against Pseudomonas aeruginosa ATCC 27853 incubated for 24 hrs followed by serial sub-cultivation and measured after 24 hrs by microdilution method; type: functional
Answers are plain numbers, in ×10⁻² umol/ml.

Below, each entry is followed by its recorded MBC99.5 result.
O=C(NN1C(=O)CSC1c1ccc(Cl)cc1)c1nsc2ccccc12 (stereo not drawn): 76.8
O=C(Cc1nsc2ccccc12)N/N=C/c1c(F)cccc1F: 23.2
O=C(Cc1nsc2ccccc12)NN1C(=O)CSC1c1cccc(Cl)c1 (stereo not drawn): 37.2
O=C(NN1C(=O)CSC1c1c(F)cccc1Cl)c1nsc2ccccc12 (stereo not drawn): 36.8
O=C(NN1C(=O)CSC1c1cccc(Cl)c1)c1nsc2ccccc12 (stereo not drawn): 38.4
O=C(Cc1nsc2ccccc12)NN1C(=O)CSC1c1c(F)cccc1Cl (stereo not drawn): 36.7
O=C(Cc1nsc2ccccc12)NN1C(=O)CSC1c1c(F)cccc1F (stereo not drawn): 37
O=C(N/N=C/c1c(F)cccc1F)c1nsc2ccccc12: 50.4

Kindly give each listed record's MBC99.5.
1. O=C(NN1C(=O)CSC1c1ccccc1Cl)c1nsc2ccccc12 (stereo not drawn)
2. O=C(NN1C(=O)CSC1c1c(Cl)cccc1Cl)c1nsc2ccccc12 (stereo not drawn)
3. O=C(NN1C(=O)CSC1c1ccccc1)c1nsc2ccccc12 (stereo not drawn)
4. O=C(Cc1nsc2ccccc12)NN1C(=O)CSC1c1ccccc1 (stereo not drawn)
5. O=C(NN1C(=O)CSC1c1ccccc1F)c1nsc2ccccc12 (stereo not drawn)
6. O=C(NN1C(=O)CSC1c1cccc(F)c1)c1nsc2ccccc12 (stereo not drawn)
7. O=C(NN1C(=O)CSC1c1c(F)cccc1F)c1nsc2ccccc12 (stereo not drawn)
8. CN[C@@H]1[C@H](O[C@H]2[C@H](O[C@H]3[C@H](O)[C@@H](O)[C@H](N=C(N)N)[C@@H](O)[C@@H]3N=C(N)N)O[C@@H](C)[C@]2(O)C=O)O[C@@H](CO)[C@H](O)[C@H]1O

1. 38.4
2. 39.5
3. 42.2
4. 40.5
5. 40.2
6. 80.4
7. 40.8
8. 34.4

----------
What MBC99.5 was measured for each of the following?
system: Bacillus cereus; assay: Bactericidal activity against Bacillus cereus incubated for 24 hrs followed by serial sub-cultivation and measured after 24 hrs by microdilution method; assay type: functional
One number for each entry, in ×10⁻² umol/ml.

O=C(NN1C(=O)CSC1c1c(F)cccc1Cl)c1nsc2ccccc12 (centres undefined): 36.8

Kindly give each listed record's MBC99.5.
1. O=C(Cc1nsc2ccccc12)NN1C(=O)CSC1c1c(F)cccc1Cl (centres undefined)
2. O=C(NN1C(=O)CSC1c1c(Cl)cccc1Cl)c1nsc2ccccc12 (centres undefined)
3. CN[C@@H]1[C@H](O[C@H]2[C@H](O[C@H]3[C@H](O)[C@@H](O)[C@H](N=C(N)N)[C@@H](O)[C@@H]3N=C(N)N)O[C@@H](C)[C@]2(O)C=O)O[C@@H](CO)[C@H](O)[C@H]1O [STREPTOMYCIN]
4. O=C(Cc1nsc2ccccc12)NN1C(=O)CSC1c1ccccc1Cl (centres undefined)
5. O=C(NN1C(=O)CSC1c1ccccc1Cl)c1nsc2ccccc12 (centres undefined)
6. O=C(NN1C(=O)CSC1c1ccc(Cl)cc1)c1nsc2ccccc12 (centres undefined)
7. O=C(NN1C(=O)CSC1c1ccc(F)cc1)c1nsc2ccccc12 (centres undefined)
8. O=C(N/N=C/c1c(F)cccc1F)c1nsc2ccccc12

36.7
79
8.6
37.2
38.4
38.4
40.2
25.2

----------
What log10(MIC) was measured for each of the following?
test system: Aspergillus ochraceus; assay: Antifungal activity against Aspergillus ochraceus ATCC 12066 after 72 hrs by serial dilution method; type: functional; settings: ATCC 12066, 72 h
Log scale reminder: MIC in µM, then log10 taken.

O=C(N/N=C/c1c(F)cccc1Cl)c1nsc2ccccc12: 1.78
O=C(N/N=C/c1c(F)cccc1F)c1nsc2ccccc12: 1.20

Kindly give each listed record's log10(MIC).
1. c1ccc(-c2ccc(C(c3ccccc3)n3ccnc3)cc2)cc1 (stereo unspecified)
2. O=C(Cc1nsc2ccccc12)N/N=C/c1c(F)cccc1F
3. O=C(NN1C(=O)CSC1c1ccc(Cl)cc1)c1nsc2ccccc12 (stereo unspecified)
4. O=C(Cc1nsc2ccccc12)NN1C(=O)CSC1c1c(F)cccc1F (stereo unspecified)
5. CC(=O)N1CCN(c2ccc(OCC3COC(Cn4ccnc4)(c4ccc(Cl)cc4Cl)O3)cc2)CC1 (stereo unspecified)
6. O=C(N/N=C/c1c(Cl)cccc1Cl)c1nsc2ccccc12

2.68
2.08
2.01
1.87
2.45
2.37

Kindly give each listed record's log10(MIC).
1. O=C(NN1C(=O)CSC1c1ccccc1F)c1nsc2ccccc12 (stereo unspecified)
2. O=C(NN1C(=O)CSC1c1ccccc1Cl)c1nsc2ccccc12 (stereo unspecified)
3. O=C(NN1C(=O)CSC1c1c(Cl)cccc1Cl)c1nsc2ccccc12 (stereo unspecified)

[1.90, 2.01, 1.98]

----------
test system: Trichoderma viride; assay: Antifungal activity against Trichoderma viride IAM 5061 after 72 hrs by serial dilution method; assay type: functional; details: IAM 5061, 72 h
Measurement Type: MIC (µM)
Give bare numbers, in µM.

Below, each entry is followed by its recorded MIC result.
O=C(NN1C(=O)CSC1c1ccccc1)c1nsc2ccccc12 (configuration not stated): 56
O=C(Cc1nsc2ccccc12)NN1C(=O)CSC1c1ccccc1 (configuration not stated): 54
O=C(NN1C(=O)CSC1c1ccc(F)cc1)c1nsc2ccccc12 (configuration not stated): 402
O=C(Cc1nsc2ccccc12)NN1C(=O)CSC1c1c(F)cccc1Cl (configuration not stated): 38

Kindly give each listed record's MIC.
1. CC(=O)N1CCN(c2ccc(OCC3COC(Cn4ccnc4)(c4ccc(Cl)cc4Cl)O3)cc2)CC1 (configuration not stated) [KETOCONAZOLE]
2. O=C(N/N=C/c1c(F)cccc1F)c1nsc2ccccc12

1: 1900; 2: 126

----------
system: Trichoderma viride; assay: Antifungal activity against Trichoderma viride IAM 5061 after 72 hrs by serial dilution method; type: functional; settings: IAM 5061, 72 h
Measurement Type: MIC (µM)
Numbers only, in µM.

Below, each entry is followed by its recorded MIC result.
O=C(Cc1nsc2ccccc12)NN1C(=O)CSC1c1c(F)cccc1F (stereo unspecified): 74
O=C(Cc1nsc2ccccc12)N/N=C/c1c(F)cccc1Cl: 116
O=C(NN1C(=O)CSC1c1ccccc1Cl)c1nsc2ccccc12 (stereo unspecified): 102
O=C(NN1C(=O)CSC1c1cccc(Cl)c1)c1nsc2ccccc12 (stereo unspecified): 51
O=C(Cc1nsc2ccccc12)N/N=C/c1c(F)cccc1F: 61

Kindly give each listed record's MIC.
1. O=C(N/N=C/c1c(Cl)cccc1Cl)c1nsc2ccccc12
2. O=C(NN1C(=O)CSC1c1cccc(F)c1)c1nsc2ccccc12 (stereo unspecified)
3. O=C(NN1C(=O)CSC1c1c(F)cccc1F)c1nsc2ccccc12 (stereo unspecified)
4. O=C(NN1C(=O)CSC1c1ccc(Cl)cc1)c1nsc2ccccc12 (stereo unspecified)
5. O=C(Cc1nsc2ccccc12)NN1C(=O)CSC1c1cccc(Cl)c1 (stereo unspecified)
6. O=C(Cc1nsc2ccccc12)NN1C(=O)CSC1c1ccc(Cl)cc1 (stereo unspecified)

[116, 54, 51, 25.6, 50, 100]

----------
test system: Aspergillus niger; experiment: Fungicidal activity against Aspergillus niger ATCC 6275 incubated for 72 hrs followed by serial sub-cultivation for 72 hrs and measured after 72 hrs by serial dilution method; type: functional
What MFC99.5 was measured for each of the following?

Below, each entry is followed by its recorded MFC99.5 result.
O=C(NN1C(=O)CSC1c1c(Cl)cccc1Cl)c1nsc2ccccc12 (configuration not stated): 79 ×10⁻² umol/ml
O=C(Cc1nsc2ccccc12)NN1C(=O)CSC1c1cccc(Cl)c1 (configuration not stated): 19.2 ×10⁻² umol/ml
O=C(Cc1nsc2ccccc12)NN1C(=O)CSC1c1c(F)cccc1Cl (configuration not stated): 36.7 ×10⁻² umol/ml
O=C(NN1C(=O)CSC1c1ccc(F)cc1)c1nsc2ccccc12 (configuration not stated): 80.4 ×10⁻² umol/ml
CC(=O)N1CCN(c2ccc(OCC3COC(Cn4ccnc4)(c4ccc(Cl)cc4Cl)O3)cc2)CC1 (configuration not stated): 95 ×10⁻² umol/ml
O=C(NN1C(=O)CSC1c1c(F)cccc1F)c1nsc2ccccc12 (configuration not stated): 40.8 ×10⁻² umol/ml

Kindly give each listed record's MFC99.5.
1. O=C(NN1C(=O)CSC1c1c(F)cccc1Cl)c1nsc2ccccc12 (configuration not stated)
2. O=C(N/N=C/c1c(F)cccc1Cl)c1nsc2ccccc12
3. O=C(N/N=C/c1c(F)cccc1F)c1nsc2ccccc12
4. O=C(Cc1nsc2ccccc12)N/N=C/c1c(F)cccc1F
5. O=C(Cc1nsc2ccccc12)NN1C(=O)CSC1c1ccc(Cl)cc1 (configuration not stated)
6. O=C(NN1C(=O)CSC1c1cccc(F)c1)c1nsc2ccccc12 (configuration not stated)

1. 73.5 ×10⁻² umol/ml
2. 12 ×10⁻² umol/ml
3. 50.4 ×10⁻² umol/ml
4. 24.1 ×10⁻² umol/ml
5. 37.2 ×10⁻² umol/ml
6. 21.4 ×10⁻² umol/ml
